Tested on: T-cell
METHOD_SUMMARY: Cytotoxicity against Balb/c mouse T cells assessed as reduction in cell proliferation at 10 uM after 48 hrs by MTT assay
Type: cell-based
OBSERVED_PROPERTY: Activity

The cases that follow already have their Activity on record.
COC(=O)[C@H](C)C1=Cc2c(C)c(OC)cc(C)c2CC1; Toxic
CC(=O)OC1=C(C)C2=C3OC(=O)C(C)=C3CC[C@@]2(C)CC1; Toxic
COc1cccc(NC(=O)[C@H](C)[C@@H]2CCc3c(C)cc(O)c(C)c3C2)c1; Non-Toxic
CC1=C2[C@H]3OC(=O)[C@@H](C)[C@@H]3CC[C@@]2(C)C=CC1=O [SANTONIN]; Non-Toxic

Okay, now this compound:
Item Cc1cc(O)c(C)c2c1CC[C@@H]([C@@H](C)C(=O)Nc1ccc(CC#N)cc1)C2 : provide Activity
Toxic

----------
Recorded Activity, one value per entry.
Tested on: B-cell
METHOD_SUMMARY: Immunostimulant activity in Balb/c mouse B cells assessed as LPS-induced cell proliferation at 100 uM after 48 hrs by MTT assay relative to control
Assay type: ADME, cell-based
Write the value in % as a bare number.

Study these solved cases before continuing.
COC(=O)[C@H](C)C1=Cc2c(C)c(OC)cc(C)c2CC1; 14.15
COc1cc(C)c2ccc([C@@H](C)C(=O)O)cc2c1C; 4.76
CCOC(=O)[C@H](C)C1=Cc2c(C)c(O)cc(C)c2CC1; 14.15
Cc1cc(O)c(C)c2c1CC[C@@H]([C@@H](C)C(=O)O)C2; 20.35
CC(=O)OCC(C)C1CCc2c(C)cc(OC(C)=O)c(C)c2C1O (stereo unspecified); 5.3

Note Activity for the compound shown: Cc1cc(OCc2cnnn2/C=C/c2ccccc2)c(C)c2c1CC[C@H]1[C@H](C)C(=O)O[C@@H]21
48.71

----------
Test system: B-cell
METHOD_SUMMARY: Cytotoxicity against Balb/c mouse B cells assessed as reduction in cell proliferation at 10 uM after 48 hrs by MTT assay
Format: cell-based
OBSERVED_PROPERTY: Activity

// below: answered compounds
COC(=O)[C@H](C)C1=Cc2c(C)c(OC)cc(C)c2CC1; Toxic
CCOC(=O)[C@H](C)c1ccc2c(C)cc(O)c(C=O)c2c1; Toxic
CC1=C(Cl)C=C[C@]2(C)CC[C@@H]3C(=C12)OC(=O)[C@H]3C; Toxic
Cc1cc(O)c(C)c2c1CCC(C(C)CO)C2O (stereo not given); Toxic

Please give measured Activity of the following entry: Cc1ccc(NC(=O)[C@H](C)[C@@H]2CCc3c(C)cc(O)c(C)c3C2)cc1O
Non-Toxic

Let me know recorded Activity for CC(=O)OC1=C(C)C2=C3OC(=O)C(C)=C3CC[C@@]2(C)CC1 , thanks.
Toxic

Give the measured Activity for CC(=O)OCC(C)C1CCc2c(C)cc(OC(C)=O)c(C)c2C1O (stereo not given)
Toxic

Give the measured Activity for Cc1cc(O)c(C)c2c1CC[C@@H]([C@@H](C)C(=O)Nc1ccc(CC#N)cc1)C2
Toxic

Identify Activity associated with the compound Cc1cc(O)c(C)c2c1CC[C@@H]([C@@H](C)C(=O)Nc1nccc(C)c1[N+](=O)[O-])C2
Toxic

Check the records and state Activity for CC1=C2[C@H]3OC(=O)[C@@H](C)[C@@H]3CC[C@@]2(C)C=CC1=O
Non-Toxic

----------
Tested on: T-cell
METHOD_SUMMARY: Cytotoxicity against Balb/c mouse T cells assessed as reduction in cell proliferation at 100 uM after 48 hrs by MTT assay
Type: cell-based
OBSERVED_PROPERTY: Activity

Known results for compounds:
Cc1c(O)c([N+](=O)[O-])c(C)c2c1[C@@H]1OC(=O)[C@@H](C)[C@@H]1CC2; Toxic
Cc1cc(O)c(C)c2c1CC[C@@H]([C@@H](C)C(=O)O)C2; Toxic
CC(=O)OCC(C)C1CCc2c(C)cc(OC(C)=O)c(C)c2C1O (stereo unspecified); Non-Toxic
Cc1cc(O)c(C)c2c1CC[C@@H]([C@@H](C)C(=O)Nc1ccc(CC#N)cc1)C2; Toxic
CC(=O)Oc1cc(C)c2c(c1C)C1OC(OC(C)=O)C(C)C1CC2 (stereo unspecified); Toxic
CCOC(=O)[C@H](C)c1ccc2c(C)cc(OC)c(C)c2c1; Toxic
COc1cccc(NC(=O)[C@H](C)[C@@H]2CCc3c(C)cc(O)c(C)c3C2)c1; Non-Toxic
CC1=C2[C@H]3OC(=O)[C@@H](C)[C@@H]3CC[C@@]2(C)C=CC1=O; Non-Toxic
Cc1c(N)c(O)c(C)c2c1CC[C@H]1[C@H](C)C(=O)O[C@@H]21; Toxic
Cc1cc(O)c(C)c2c1CCC1C2OC(O)C1C (stereo unspecified); Toxic

Turning now to a further compound:
Consider the compound Cc1ccc(NC(=O)[C@H](C)[C@@H]2CCc3c(C)cc(O)c(C)c3C2)cc1O tested on T-cell; state its Activity.
Non-Toxic

----------
Test system: T-cell
METHOD_SUMMARY: Immunosuppressive activity in Balb/c mouse T cells assessed as ConA-induced cell proliferation at 1 uM after 48 hrs by MTT assay relative to control
Assay type: functional
Rule for this label: Fulfilled means Activity is less than -30%; Not fulfilled means Activity is at least -30%.

Example entries and their recorded answers appear below.
Cc1cc(OCc2cnnn2/C=C/c2ccccc2)c(C)c2c1CC[C@H]1[C@H](C)C(=O)O[C@@H]21; Fulfilled
CC(=O)Oc1cc(C)c2c(c1C)C1OC(OC(C)=O)C(C)C1CC2 (centres undefined); Fulfilled
Cc1cc(OCc2cnnn2-c2cccc(I)c2)c(C)c2c1CC[C@H]1[C@H](C)C(=O)O[C@@H]21; Not fulfilled
COc1cc(-n2nncc2COc2cc(C)c3c(c2C)[C@@H]2OC(=O)[C@@H](C)[C@@H]2CC3)cc(OC)c1OC; Not fulfilled
CC(=O)Nc1ccc(-n2nncc2COc2cc(C)c3c(c2C)[C@@H]2OC(=O)[C@@H](C)[C@@H]2CC3)cc1; Not fulfilled
Cc1cc(O)c(C)c2c1CC[C@@H]([C@@H](C)C(=O)Nc1ccc(CC#N)cc1)C2; Fulfilled

Criterion: Activity strictly below -30%. Is it met by Cc1cc(OCc2cnnn2-c2ccc(C=O)cc2)c(C)c2c1CC[C@H]1[C@H](C)C(=O)O[C@@H]21 ?
Not fulfilled

Please state whether Activity is below -30% for Cc1ccc(I)cc1-n1nncc1COc1cc(C)c2c(c1C)[C@@H]1OC(=O)[C@@H](C)[C@@H]1CC2
Not fulfilled

----------
# Lookup of reported Activity keyed by entry
Test system: T-cell
METHOD_SUMMARY: Immunosuppressive activity in Balb/c mouse T cells assessed as ConA-induced cell proliferation at 1 uM after 48 hrs by MTT assay relative to control
Type: functional
Write the value in % as a bare number.

Report Activity on T-cell for this entry: COc1ccc2cc(-n3nncc3COc3cc(C)c4c(c3C)[C@@H]3OC(=O)[C@@H](C)[C@@H]3CC4)ccc2c1
-93.9

Would you please give the reported Activity of CCOC(=O)[C@H](C)c1ccc2c(C)cc(OC)c(C)c2c1 with T-cell?
-31.61

Send back T-cell Activity of CC1=C2[C@H]3OC(=O)[C@@H](C)[C@@H]3CC[C@@]2(C)C=CC1=O [SANTONIN] only.
-36.02

Fetch value of Activity on T-cell for CC1=C(Cl)C=C[C@]2(C)CC[C@@H]3C(=C12)OC(=O)[C@H]3C .
-5.15

Please report Activity with T-cell for item CC(=O)OC1=C(C)C2=C3OC(=O)C(C)=C3CC[C@@]2(C)CC1 .
-30.88

----------
Tested on: B-cell
METHOD_SUMMARY: Immunosuppressive activity in Balb/c mouse B cells assessed as LPS-induced cell proliferation at 100 uM after 48 hrs by MTT assay relative to control
Assay type: functional
Entries annotated with measured Activity
Please state the figure in %; there is no need to write the unit.

Cc1ccc(I)cc1-n1nncc1COc1cc(C)c2c(c1C)[C@@H]1OC(=O)[C@@H](C)[C@@H]1CC2; -16.84
CC(=O)Oc1cc(C)c2c(c1C)C1OC(OC(C)=O)C(C)C1CC2 (centres undefined); -45.05
Cc1ccc(NC(=O)[C@H](C)[C@@H]2CCc3c(C)cc(O)c(C)c3C2)cc1O; -29.35

Now examine the next entry.
Tell me its Activity given Cc1cc(O)c(C)c2c1CC[C@@H]([C@@H](C)C(=O)Nc1nccc(C)c1[N+](=O)[O-])C2 as the entry.
-2.98

----------
System: B-cell
METHOD_SUMMARY: Cytotoxicity against Balb/c mouse B cells assessed as reduction in cell proliferation at 1 uM after 48 hrs by MTT assay
Assay type: cell-based
OBSERVED_PROPERTY: Activity

Consider the following illustrative entries.
Cc1cc(O)c(C)c2c1CC[C@@H]([C@@H](C)C(=O)Nc1ccc(CC#N)cc1)C2; Toxic
Cc1cc(O)c(C)c2c1CCC1C2OC(O)C1C (stereo unspecified); Toxic
Cc1cc(O)c(C)c2c1CC[C@@H]([C@@H](C)C(=O)O)C2; Toxic
COC(=O)[C@H](C)C1=Cc2c(C)c(OC)cc(C)c2CC1; Toxic
CCOC(=O)[C@H](C)C1=Cc2c(C)c(O)cc(C)c2CC1; Toxic
COc1cc(C)c2ccc([C@@H](C)C(=O)O)cc2c1C; Toxic
CC1=C2[C@H]3OC(=O)[C@@H](C)[C@@H]3CC[C@@]2(C)C=CC1=O [SANTONIN]; Non-Toxic
CCOC(=O)[C@H](C)c1ccc2c(C)cc(OC)c(C)c2c1; Non-Toxic
Cc1c(N)c(O)c(C)c2c1CC[C@H]1[C@H](C)C(=O)O[C@@H]21; Toxic
CC(=O)Oc1cc(C)c2c(c1C)C1OC(OC(C)=O)C(C)C1CC2 (stereo unspecified); Toxic

Below: the item to evaluate.
Give Activity for Cc1c(O)c([N+](=O)[O-])c(C)c2c1[C@@H]1OC(=O)[C@@H](C)[C@@H]1CC2
Toxic
